biological target: pancreatic elastase (UniProt P00772); assay: Inhibition of pancreatic elastase (PE), Ki with synthetic nitroanilide substrates; type: biochemical; conditions: substrate Glt-(Ala)4-Nan, read-out: Inhibition constant Ki, PE, Glt--(Ala)4--Nan
Sequence (P00772 27-266): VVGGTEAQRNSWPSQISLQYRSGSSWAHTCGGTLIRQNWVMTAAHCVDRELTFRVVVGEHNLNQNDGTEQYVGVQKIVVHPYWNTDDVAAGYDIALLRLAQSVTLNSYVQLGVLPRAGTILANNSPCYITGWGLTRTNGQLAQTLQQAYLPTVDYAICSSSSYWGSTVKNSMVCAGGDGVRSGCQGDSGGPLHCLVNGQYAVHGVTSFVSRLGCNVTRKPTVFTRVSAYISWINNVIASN
Where a SMILES comes first, the peptide text is derived from it. The star is where a group is joined. Undecanoyl = CCCCCCCCCCC(=O)*; Cbz = O=C(OCc1ccccc1)*; Butyryl = CCCC(=O)*; NHiBu = CC(C)CN*; NHPr = CCCN*
Each entry below carries its reported Ki.

| Compound | Target desc | Display unit | Ki |
| --- | --- | --- | --- |
| CCCCCCCCCC=CCC(CC(=O)O)C(=O)N[C@@H](C)C(=O)N[C@@H](C)C(=O)N[C@@H](C)C(=O)NCC (some centres unmarked) | pancreatic elastase (UniProt P00772) | µM | 1.8 |
| CCCC(=O)N[C@@H](CC(=O)O)C(=O)N[C@@H](C)C(=O)N[C@@H](C)C(=O)N1CCC[C@H]1C(=O)NCC(C)C [Btr--Asp--Ala--Ala--Pro--NH--iBu] (Butyryl-DAAP-NHiBu) | pancreatic elastase (UniProt P00772) | µM | 120 |
| CCCCCCCCCCC(=O)N[C@@H](CC(=O)O)C(=O)N[C@@H](C)C(=O)N[C@@H](C)C(=O)N1CCC[C@H]1C(=O)NCC [UDA--Asp--Ala--Ala--Pro--NH--Et] (Undecanoyl-DAAP-NHEt) | pancreatic elastase (UniProt P00772) | µM | 5.4 |
| CCNC(=O)[C@H](C)NC(=O)[C@H](C)NC(=O)[C@@H]1CCCN1C(=O)[C@H](CC(=O)O)NC(C)=O [Ac--Asp--Pro--Ala--Ala--NH--Et] (Ac-DPAA-NHEt) | pancreatic elastase (UniProt P00772) | µM | 34 |
| CCCNC(=O)[C@@H]1CCCN1C(=O)[C@H](C)NC(=O)[C@H](C)NC(=O)[C@H](CCC(=O)O)NC(=O)CCC [Btr--Glu--Ala--Ala--Pro--NH--Pr] (Butyryl-EAAP-NHPr) | pancreatic elastase (UniProt P00772) | µM | 193 |
| CCCCCCCCCC=CCC(CC(=O)O)C(=O)N[C@@H](C)C(=O)N[C@@H](C)C(=O)N[C@@H](C)C(=O)NCC(C)C (some centres unmarked) | pancreatic elastase (UniProt P00772) | µM | 93 |
| CCCCCCCCCC=CCC(CC(=O)O)C(=O)N[C@@H](C)C(=O)N[C@@H](C)C(=O)N1CCC[C@H]1C(=O)NCCC (some centres unmarked) | pancreatic elastase (UniProt P00772) | µM | 0.6 |
| CCNC(=O)[C@H](C)NC(=O)[C@H](C)NC(=O)[C@H](C)NC(=O)[C@H](CCC(=O)O)NC(=O)OCc1ccccc1 [Z--Glu--Ala--Ala--Ala--NH--Et] (Cbz-EAAA-NHEt) | pancreatic elastase (UniProt P00772) | µM | 173 |
